assay: mn = molality of the nth substance listed, in mol/kg; details: 283.15 K; 101 kPa; Liquid; Alternating current cell with electrodes; m1 = 0.01
Measured quantity: electrical conductivity
Don't forget the unit after the value.

[in] I'd like to know its electrical conductivity. The molecule in question is [Cl-].[Na+] [sodium chloride] + O
[out] 0.0839 S/m

[in] Lookup O=S(=O)([O-])[O-].[Na+].[Na+] [sodium sulfate] + O
[out] 0.149 S/m

[in] Lookup [Na+].[OH-] [sodium hydroxide] + O
[out] 0.179 S/m

[in] Lookup [Cl-].[K+] [potassium chloride] + O
[out] 0.101 S/m
